System: HL-60
Assay Info: Cytotoxic activity against human HL60 cells after 69 hrs by MTT assay
Type: functional, cell-based
Condition Info: HL-60, 69 h
Let's look at some compounds and their measured IC50.

>  <Sample Smiles>
C=C/C(C)=C/C[C@]1(C)[C@H]2C[C@@H](OC(C)=O)C=C3[C@H](OC(C)=O)O[C@@H](OC(C)=O)[C@@]32[C@H](OC(=O)c2ccc(O)cc2)C[C@@H]1C

>  <IC50>
> 5000 nM

$$$$

Looking up `C=C/C(C)=C/C[C@]1(C)[C@H]2C[C@H](O)C=C3[C@H](OC(C)=O)O[C@@H](OC(C)=O)[C@@]32[C@H](OC(=O)/C=C/c2ccccc2)C[C@@H]1C` , I see its IC50 listed as > 5000 nM

Looking up `COc1cccc2c1C(=O)c1c(O)c3c(c(O)c1C2=O)C[C@@](O)(C(=O)CO)C[C@@H]3O[C@H]1C[C@H](N)[C@H](O)[C@H](C)O1` , I see its IC50 listed as 70 nM
